target: IDO1 (Homo sapiens); experiment: IDO1 Cellular Assay in Hela Cells Stimulated with IFNγ; assay type: cell-based; parameters: endogenous in cells; host or cells: HeLa cells stimulated with IFNγ (100 ng/mL); conditions: Hela cells stimulated with IFNγ 100 ng/mL, 300 uM L-tryptophan, about 48 hours, fluorescence readout
Sequence (P14902 whole entry): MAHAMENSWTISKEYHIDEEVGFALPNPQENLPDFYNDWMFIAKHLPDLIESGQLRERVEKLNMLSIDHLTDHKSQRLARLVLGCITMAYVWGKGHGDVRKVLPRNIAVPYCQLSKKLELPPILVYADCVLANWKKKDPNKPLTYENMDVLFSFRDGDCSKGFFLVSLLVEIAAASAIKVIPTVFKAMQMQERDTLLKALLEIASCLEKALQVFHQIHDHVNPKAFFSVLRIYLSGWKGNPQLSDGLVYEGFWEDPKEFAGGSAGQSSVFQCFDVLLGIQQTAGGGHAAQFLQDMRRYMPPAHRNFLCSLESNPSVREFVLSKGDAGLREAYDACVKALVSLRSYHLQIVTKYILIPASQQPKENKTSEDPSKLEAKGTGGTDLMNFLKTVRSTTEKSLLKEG
pIC50: −log10 of the molar value.
experimental readout: pIC50

[I] O=C(Nc1ccc(C2(NC(=O)c3cocn3)CCC2)cc1)c1cccc(Cl)c1
[II] CCCNC(=O)C1(c2ccc(NC(=O)c3nnsc3C)cc2)CCC1
*Q* Larger number for pIC50: I , or II ? Kindly state the label of the option you pick.
*A* I
